- System: bronchospasms elicited by histamine
- assay method text: Bronchodilator activity (Konzett assay) against bronchospasm elicited by intravenous histamine
- Type: in vivo, guinea pigs
- assay conditions: Cavia porcellus, guinea pig, three logarithmic cumulative doses, spasmogen histamine i.v., read-out: Bronchodilator Activity (Konzett Assays) ED50, Spasmogenic Agent histamine
readout: ED50 (µg/kg)
State just the number; it will be interpreted in µg/kg.

Data request, read-out ED50, for C=CC(O)(C/C=C/[C@H]1[C@H](O)CC(=O)[C@@H]1C/C=C\CCCC(=O)O)CCCCC (relative stereo)
2.3

Data request, read-out ED50, for C=CC(O)(C/C=C/[C@H]1[C@H](O)CC(=O)[C@@H]1C/C=C\CCCC(=O)O)CCCC (relative stereo)
0.162

Data request, read-out ED50, for C=CC(O)(C/C=C/[C@H]1[C@H](O)CC(=O)[C@@H]1C/C=C\CCCC(=O)OC)CCCC (relative stereo)
0.212

Data request, read-out ED50, for C=CC(O)(C/C=C/[C@H]1[C@H](O)CC(=O)[C@@H]1CCCCCCC(=O)O)CCCC (relative stereo)
1.11
